test: PET/CT imaging of [18F]15; format: in vivo, Rj:NMRI-Foxn1^nu/nu mice; conditions: Rj:NMRI-Foxn1^nu/nu, mouse, subcutaneous AR42J tumor, iv, 0.2 nmol, total radioactivity, 25 min post injection; read-out: tumor SUV, baseline
value.type: SUV at 25 min (SUV)
Numbers only, in SUV.

Q. Fill in SUV at 25 min for record C[C@@H](O)[C@@H]1NC(=O)[C@H](CCCCN)NC(=O)[C@@H](Cc2c[nH]c3ccccc23)NC(=O)[C@H](Cc2ccc(O)cc2)NC(=O)[C@@H](NC(=O)[C@@H](Cc2ccccc2)NC(=O)CCOCCOCCOCCOCCON=Cc2ccc(C(=O)NCCOCCOCCOCCNC(=O)OC3CCCc4cnnc(-c5ccc(CC(=O)NCC[N+](C)(C)C[B-](F)(F)F)cc5)c4CC3)cc2)CSSC[C@@H](C(=O)N[C@H](CO)[C@@H](C)O)NC1=O (stereo partly shown) [[^18F]15]
A. 1.01

----------
assay: Ex vivo biodistribution of [18F]14 and [18F]15; format: in vivo, Rj:NMRI-Foxn1^nu/nu mice; details: mouse, iv, 0.2 nmol, 60 min post injection, i.v., baseline; read-out: lung
Task for the reader: assign each of the following molecules its reported tissue uptake at 1 h.
Numbers only, in %ID/g.

{"molecule": "C[C@@H](O)[C@@H]1NC(=O)[C@H](CCCCN)NC(=O)[C@@H](Cc2c[nH]c3ccccc23)NC(=O)[C@H](Cc2ccc(O)cc2)NC(=O)[C@@H](NC(=O)[C@@H](Cc2ccccc2)NC(=O)CCOCCOCCOCCOCCON=Cc2ccc(C(=O)NCCOCCOCCOCCNC(=O)OC3CCCc4cnnc(-c5ccc(CC(=O)NCC[N+](C)(C)C[B-](F)(F)F)cc5)c4CC3)cc2)CSSC[C@@H](C(=O)N[C@H](CO)[C@@H](C)O)NC1=O (some centres unmarked) [[^18F]15]", "value.type": "tissue uptake at 1 h", "unit.of.measurement": "%ID/g", "measured": 5.4}

Q. Fill in tissue uptake at 1 h for record C[C@@H](O)[C@@H]1NC(=O)[C@H](CCCCN)NC(=O)[C@@H](Cc2c[nH]c3ccccc23)NC(=O)[C@H](Cc2ccc(O)cc2)NC(=O)[C@@H](NC(=O)[C@@H](Cc2ccccc2)NC(=O)CCOCCOCCOCCOCCON=Cc2ccc(CNC(=O)OC3CCCc4cnnc(-c5ccc(CC(=O)NCC[N+](C)(C)C[B-](F)(F)F)cc5)c4CC3)cc2)CSSC[C@@H](C(=O)N[C@H](CO)[C@@H](C)O)NC1=O (some centres unmarked) [[^18F]14]
A. 6.2
